tested on: Plasmodium falciparum Sir2 (PF13_0152, Sir2A); experiment: Plasmodium falciparum Sir2A binding compounds – biochemical, small-molecule microarray, 635 nm fluorescence, primary screen (AID 1098); conditions: fluorescence 635 nm, higher = more signal;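 note: score merges spot fluorescence intensity with its signal-to-noise ratio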
Below, each entry is listed alongside its reported composite z-score.
# respond with the number and nothing more

Illustrative cases are given below, each with its answer.
CN1C(=O)C2C=CC(C(O)c3ccc(Br)cc3)N(Nc3ccccc3)C2C1=O (centres undefined)
-0.186
[N-]=[N+]=Nc1ccccc1[C@@H]1OC(c2ccc(OCCCO)cc2)=N[C@]1(CCS(=O)(=O)c1ccccc1)C(=O)N1CCCCC1
1.39
C=C(CCCC)C(=O)CC[C@H](OC(C)=O)c1ccc(CO)o1
0.621

As a next step, examine the compound that follows.
Give the measured composite z-score of CCOC(=O)C1=C[C@@H](C(C)(C)C)N(S(=O)(=O)c2ccc(C)cc2)[C@H]1c1ccc(Cl)c(Cl)c1 .
1.1
